System: PC-3 prostate
Experiment: NCI tumour cell line growth inhibition, 48 h
Measured TGI, listed per entry for reference.
experimentalReadout: TGI

>>> result("CC(=O)Oc1cc2c(n(C)c1=O)CCC2")
"> 100 µM"
>>> result("COc1cc[nH]c1/C=C1\\C(=O)Nc2ccc([N+](=O)[O-])c(N3CC[C@@H](O)C3)c21")
"2.15 µM"
>>> result("CCOC(=O)/C=C1\\C[C@H](NC(=O)OCc2ccccc2)C(=O)N1CC(=O)OCC")
"> 100 µM"
>>> result("CC1(C)O[C@@H](CP(c2ccc3ccccc3c2)c2ccc3ccccc3c2)[C@H](CP(c2ccc3ccccc3c2)c2ccc3ccccc3c2)O1")
"> 100 µM"
>>> result("CC1CC2(C)CC(=O)C1C1C(=O)N(CCN3CCOCC3)C(=O)C12 (stereo not drawn)")
"> 100 µM"
>>> result("C=[N+](CNC(=O)CNC(=O)C(Cc1ccccc1)NC(=O)OC(C)(C)C)C(=O)CNC(=O)C(Cc1ccccc1)NC(=O)OC(C)(C)C (stereo not drawn)")
"> 100 µM"
>>> result("COc1ccc(CNC(=O)c2c(C)n([O-])c3cc(F)c(F)cc3[n+]2=O)cc1")
"23.9 µM"
>>> result("O=c1[nH]c(=S)c2[nH]c(=O)n(-c3ccccc3)c2[nH]1")
"> 100 µM"
>>> result("NC(=O)N=Nc1c2ccccc2n2[nH]ccc12")
"> 100 µM"
>>> result("O=C(O)CSc1nnc2c3ccccc3c3ccccc3c2n1")
"> 100 µM"
>>> result("CC(=O)Nc1ccc2c3c(cc(O)c2c1)N(C(=O)CCCCCC(=O)Nc1ccc2c4c(cc(O)c2c1)N(C(=O)OC(C)(C)C)CC4CCl)CC3CCl (stereo not drawn)")
"> 50.2 µM"
>>> result("Fc1ccc(C(OCCN2CCC3CCC(C2)N3C/C=C/c2cccnc2)c2ccc(F)cc2)cc1 (stereo not drawn)")
"21.8 µM"
>>> result("CC(C)=C=CC(C)(C)NS(=O)(=O)NC(C)(C)C=C=C(C)C")
"> 100 µM"
>>> result("CCN(CC)c1ccc2cc(-c3csc(-c4ccc(N(C)C)cc4)n3)c(=O)oc2c1")
"> 100 µM"
>>> result("COc1ccc2c(c1)C(=O)c1c-2n(CCCNCCO)c(=O)c2cc([N+](=O)[O-])ccc12")
"1.33 µM"
>>> result("C=C(C)COC(=O)COCC(=O)OCC(=C)C")
"> 100 µM"
>>> result("CC1(C)N=C(N)N=C(N)N1c1ccc(CCC(=O)Nc2cccc(S(=O)(=O)F)c2)cc1")
"> 100 µM"
>>> result("CN1CCN(Cc2ccc(NC(=O)c3cncc(C#Cc4ncc5ccccn45)c3)cc2C(F)(F)F)CC1")
"8.65 µM"
>>> result("O=C(CC(C(=O)c1cccs1)c1ccccc1)c1ccccc1O (stereo not drawn)")
"> 100 µM"
>>> result("OCC1(CNc2cc(Cl)ncn2)CCC1")
"> 100 µM"
>>> result("O=C(CSCC(=O)N/N=C/c1ccncc1)N/N=C/c1ccncc1")
"> 100 µM"
>>> result("COC(=O)C1=C(O)C(C(=O)OC)[C@@]2(O)[C@@H](C(=O)OC)C(c3ccccc3Cl)C[C@@H]1[C@@H]2C(=O)OC (stereo partly drawn)")
"36.5 µM"
>>> result("COc1ccc(-c2c(C#N)cnc(N)c2-c2nc3cc(C)c(C)cc3[nH]2)cc1")
"> 100 µM"
